Please go through the items and note down their inhibition at 0.1 µM.
measured_on: human GRα protein (Homo sapiens, UniProt P04150)
Construct: made in house; host or cells: insect cells infected with baculovirus; cytoplasm fraction used
Sequence (P04150 whole entry): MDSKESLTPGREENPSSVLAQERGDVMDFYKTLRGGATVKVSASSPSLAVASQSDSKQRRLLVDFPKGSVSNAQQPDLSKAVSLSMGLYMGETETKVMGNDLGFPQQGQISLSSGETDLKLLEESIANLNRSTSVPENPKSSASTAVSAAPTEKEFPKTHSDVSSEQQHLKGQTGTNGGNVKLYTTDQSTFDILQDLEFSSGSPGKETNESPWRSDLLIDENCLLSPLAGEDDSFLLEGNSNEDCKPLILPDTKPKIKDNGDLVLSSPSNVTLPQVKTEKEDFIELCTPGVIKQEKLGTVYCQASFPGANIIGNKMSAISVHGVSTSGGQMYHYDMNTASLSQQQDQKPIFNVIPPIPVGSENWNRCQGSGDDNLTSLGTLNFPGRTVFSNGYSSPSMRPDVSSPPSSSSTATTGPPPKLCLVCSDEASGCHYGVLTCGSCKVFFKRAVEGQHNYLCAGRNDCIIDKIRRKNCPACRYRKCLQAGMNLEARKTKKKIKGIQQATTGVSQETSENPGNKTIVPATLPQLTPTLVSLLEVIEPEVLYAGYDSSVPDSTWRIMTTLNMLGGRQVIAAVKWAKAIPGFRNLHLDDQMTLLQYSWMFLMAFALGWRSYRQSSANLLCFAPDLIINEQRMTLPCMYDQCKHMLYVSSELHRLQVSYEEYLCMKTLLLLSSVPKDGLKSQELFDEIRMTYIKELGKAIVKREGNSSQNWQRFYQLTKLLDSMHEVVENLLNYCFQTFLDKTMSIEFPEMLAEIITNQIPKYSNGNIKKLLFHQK
test: Binding inhibitory assay (displacement of 3H-dexamethasone from the cytoplasm fraction of baculovirus-infected insect cells)
run_parameters: 100 nM test compound; 3H-Dex; NSB with 10 μM dexamethasone; read-out: Binding Inhibitory ratio (%) of 100 nM of test compound
One number for each entry, in %.

{"columns": ["compound", "measured_on", "inhibition at 0.1 µM, %"],
 "data": [
  ["C=CCC(O)(c1cn(Cc2ccccc2)c2cc([N+](=O)[O-])ccc12)C(F)(F)F (stereo not shown)", "human GRα protein (Homo sapiens, UniProt P04150)", 98]
]}

Please state, for each entry, its recorded inhibition at 0.1 µM.
1. CCOC(=O)CCCNCC(O)(c1cn(Cc2ccccc2)c2cc([N+](=O)[O-])ccc12)C(F)(F)F (stereo not shown)
2. CCOC(=O)CCc1ccc(C(=O)C2CCN(CC(O)(c3cn(Cc4ccccc4)c4cc([N+](=O)[O-])ccc34)C(F)(F)F)CC2)cc1 (stereo not shown)
3. CN(C(=O)C1CCN(CC(O)(c2cn(Cc3ccccc3)c3cc([N+](=O)[O-])ccc23)C(F)(F)F)CC1)c1ccccc1 (stereo not shown)
4. CC(C)(C)OC(=O)N1CCN(CC(O)(c2cn(Cc3ccccc3)c3cc([N+](=O)[O-])ccc23)C(F)(F)F)CC1 (stereo not shown)

99
74
59
101

Please state, for each entry, its recorded inhibition at 0.1 µM.
1. COc1cc(CC(=O)O)ccc1OC1CCN(CC(O)(c2cn(Cc3ccccc3)c3cc([N+](=O)[O-])ccc23)C(F)(F)F)CC1 (stereo not shown)
2. O=[N+]([O-])c1ccc2c(C(O)(CN3CCC(Nc4ccccc4)CC3)C(F)(F)F)cn(Cc3ccccc3)c2c1 (stereo not shown)

1. 99
2. 82
